So I've got a bunch of compounds here, and I need their relative viability values.
Test system: NCI-H520
assay_text: relative viability (nuclei count vs DMSO), 5 days (fraction); higher = more cells survive
cond: first compound 2.53 µM
One number for each entry.

Some solved entries appear below for comparison.
Oc1nc(-c2ccc(C(F)(F)F)cc2)nc2c1CSCC2 [XAV939] + COc1cc2c(Oc3ccc(NC(=O)C4(C(=O)Nc5ccc(F)cc5)CC4)cc3F)ccnc2cc1OCCCN1CCOCC1 [Foretinib] (partner 0.25 µM)
0.626
Oc1nc(-c2ccc(C(F)(F)F)cc2)nc2c1CSCC2 [XAV939] + CC1(C)CCC(c2ccc(Cl)cc2)=C(CN2CCN(c3ccc(C(=O)NS(=O)(=O)c4ccc(N[C@H](CCN5CCOCC5)CSc5ccccc5)c(S(=O)(=O)C(F)(F)F)c4)cc3)CC2)C1 [Navitoclax] (partner 0.5 µM)
0.885

# batch size: 3; output relative viability per entry
1. Oc1nc(-c2ccc(C(F)(F)F)cc2)nc2c1CSCC2 [XAV939] + C[C@@H](Oc1cc(-c2cnn(C3CCNCC3)c2)cnc1N)c1c(Cl)ccc(F)c1Cl [Crizotinib] (partner 1 µM)
2. C=C1C(=O)O[C@@H](CCCCCCCC)[C@@H]1C(=O)O [C-75] + C[C@@H](Oc1cc(-c2cnn(C3CCNCC3)c2)cnc1N)c1c(Cl)ccc(F)c1Cl [Crizotinib] (partner 1 µM)
3. C=C1C(=O)O[C@@H](CCCCCCCC)[C@@H]1C(=O)O [C-75] + Nc1ncn([C@H]2C[C@H](O)[C@@H](CO)O2)c(=O)n1 [Decitabine] (partner 2 µM)

## Output
0.68
0.706
0.456

# batch size: 3; output relative viability per entry
1. C=C1C(=O)O[C@@H](CCCCCCCC)[C@@H]1C(=O)O [C-75] + Cc1nc(NC(=O)N2CCC[C@H]2C(N)=O)sc1-c1ccnc(C(C)(C)C(F)(F)F)c1 [Alpelisib] (partner 2 µM)
2. Oc1nc(-c2ccc(C(F)(F)F)cc2)nc2c1CSCC2 [XAV939] + Cc1nc(NC(=O)N2CCC[C@H]2C(N)=O)sc1-c1ccnc(C(C)(C)C(F)(F)F)c1 [Alpelisib] (partner 2 µM)
3. Oc1nc(-c2ccc(C(F)(F)F)cc2)nc2c1CSCC2 [XAV939] + Nc1nc2[nH]cc(CCc3ccc(C(=O)N[C@@H](CCC(=O)O)C(=O)O)cc3)c2c(=O)[nH]1 [Pemetrexed] (partner 0.2 µM)

## Output
1: 0.996; 2: 0.648; 3: 0.626

# batch size: 2; output relative viability per entry
1. C=C1C(=O)O[C@@H](CCCCCCCC)[C@@H]1C(=O)O [C-75] + CC(=O)Nc1cccc(-n2c(=O)n(C3CC3)c(=O)c3c(Nc4ccc(I)cc4F)n(C)c(=O)c(C)c32)c1 [Trametinib] (partner 0.02 µM)
2. Oc1nc(-c2ccc(C(F)(F)F)cc2)nc2c1CSCC2 [XAV939] + CC(=O)Nc1cccc(-n2c(=O)n(C3CC3)c(=O)c3c(Nc4ccc(I)cc4F)n(C)c(=O)c(C)c32)c1 [Trametinib] (partner 0.02 µM)

## Output
0.48
0.427

# batch size: 2; output relative viability per entry
1. Oc1nc(-c2ccc(C(F)(F)F)cc2)nc2c1CSCC2 [XAV939] + CC(=O)c1c(C)c2cnc(Nc3ccc(N4CCNCC4)cn3)nc2n(C2CCCC2)c1=O [Palbociclib] (partner 0.5 µM)
2. Oc1nc(-c2ccc(C(F)(F)F)cc2)nc2c1CSCC2 [XAV939] + O=C(c1cc(Cc2n[nH]c(=O)c3ccccc23)ccc1F)N1CCN(C(=O)C2CC2)CC1 [Olaparib] (partner 8 µM)

## Output
[0.211, 0.356]
